These data points were gathered from ChEMBL document CHEMBL3797092.

measurement.notes: Association constant, pKa of the compound by potentiometric titration method
Assay type: physicochemical

| smiles.data | pKa |
| --- | --- |
| CN(c1nc2ccccc2s1)C1CCN(C[C@H](O)COc2ccc(F)c(F)c2)CC1 | 2.85 |

###

target.or.system: Calcium/calmodulin-dependent protein kinase kinase 2 (Homo sapiens, UniProt Q96RR4)
Sequence (Q96RR4 whole entry): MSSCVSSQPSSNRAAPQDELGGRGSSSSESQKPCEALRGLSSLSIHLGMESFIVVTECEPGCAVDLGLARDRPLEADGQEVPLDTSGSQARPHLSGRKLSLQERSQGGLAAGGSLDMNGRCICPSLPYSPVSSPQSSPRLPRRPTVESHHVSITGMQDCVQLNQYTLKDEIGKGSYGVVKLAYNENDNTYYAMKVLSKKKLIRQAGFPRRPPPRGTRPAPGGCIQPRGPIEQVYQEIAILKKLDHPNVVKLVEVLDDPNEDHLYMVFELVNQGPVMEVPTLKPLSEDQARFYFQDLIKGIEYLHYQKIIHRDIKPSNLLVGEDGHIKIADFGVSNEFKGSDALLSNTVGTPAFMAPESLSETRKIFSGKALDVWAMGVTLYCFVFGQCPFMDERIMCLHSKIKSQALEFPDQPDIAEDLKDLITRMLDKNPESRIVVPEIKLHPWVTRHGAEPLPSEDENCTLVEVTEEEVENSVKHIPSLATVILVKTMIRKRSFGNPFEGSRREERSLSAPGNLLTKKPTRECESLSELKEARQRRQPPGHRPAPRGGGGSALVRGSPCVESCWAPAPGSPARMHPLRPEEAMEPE
measurement.notes: Inhibition of full length recombinant human CaMKK2 expressed in insect Sf21 cells in presence of 2 uM CaM/[gamma32P]ATP by liquid scintillation counting analysis
pIC50: −log10 of the molar value.

| smiles.data | target.or.system | pIC50 |
| --- | --- | --- |
| COc1cccc(CN(CCN(CCN(C)C)Cc2ccccc2)Cc2ccccc2)c1 | Calcium/calmodulin-dependent protein kinase kinase 2 (Homo sapiens, UniProt Q96RR4) | 4.39 |

###

Property: pKa; scope: individual compounds
measurement.notes: Association constant, pKa of the compound
Format: physicochemical

| smiles.data | pKa |
| --- | --- |
| COc1cccc(CN(CCN(CCN(C)C)Cc2ccccc2)Cc2ccccc2)c1 | 2.37 |
| NCCCCCCNS(=O)(=O)c1cccc2c(Cl)cccc12 | 9 |
